- System: P388 leukemia ip, CD2F1 mice, survival T/C
- EXPERIMENT DESCRIPTION: NCI In Vivo Anticancer Drug Screen. Data for tumor model P388 Leukemia (intraperitoneal) in CD2F1 (CDF1) mice
- RUN PARAMETERS: endpoint: median survival time; dose: 200.0 mg/kg/injection; schedule: Q01DX005 (ip); vehicle: saline with Tween-80; higher = longer survival
Toxic doses and inconclusive results are not listed.
Listed here are compounds together with their documented T/C.

[
  {
    "COMPOUND": "COc1ccc(CNC(=O)C(CO)N2C(=O)c3ccccc3C2=O)cc1 (stereo unspecified)",
    "T/C": "90 % of control"
  },
  {
    "COMPOUND": "CCc1c(Cc2[nH]c(C=O)c(C)c2CC)[nH]c(C=O)c1C",
    "T/C": "100 % of control"
  },
  {
    "COMPOUND": "COc1ccc(N=C(Cl)c2ccc(Br)cc2)cc1",
    "T/C": "96 % of control"
  },
  {
    "COMPOUND": "O=C(NC(=O)c1ccccc1Cl)Nc1ccc(C(O)(C(F)(F)F)C(F)(F)F)cc1",
    "T/C": "100 % of control"
  },
  {
    "COMPOUND": "O=[N+]([O-])c1ccc(Sc2c3ccccc3nc3ccccc23)cn1",
    "T/C": "101 % of control"
  },
  {
    "COMPOUND": "CC(C)c1cccc(C(C)C)c1NC(=O)CCc1n[nH]c(=S)o1",
    "T/C": "105 % of control"
  }
]

* * *

- System: P388 leukemia ip, CD2F1 mice, survival T/C
- EXPERIMENT DESCRIPTION: NCI In Vivo Anticancer Drug Screen. Data for tumor model P388 Leukemia (intraperitoneal) in CD2F1 (CDF1) mice
- RUN PARAMETERS: endpoint: median survival time; dose: 50.0 mg/kg/injection; schedule: Q01DX005 (ip); vehicle: saline with Tween-80; higher = longer survival
Toxic doses and inconclusive results are not listed.

[
  {
    "COMPOUND": "C(#Cc1ccccc1)/C=C/C(=C\\c1ccccc1)c1ccccc1",
    "T/C": "101 % of control"
  },
  {
    "COMPOUND": "CC1=C(C)C(=O)C(CCl)=[C-]C1=O.[Co].[c-]1[c-][c-][cH-][c-]1",
    "T/C": "123 % of control"
  },
  {
    "COMPOUND": "Cc1cc2cc(C)c3c(Cl)nnc(Cl)c3c2o1",
    "T/C": "106 % of control"
  },
  {
    "COMPOUND": "COC(=O)/C=C1\\C2OC(C1C(=O)OC)C(O)C2O (stereo unspecified)",
    "T/C": "100 % of control"
  },
  {
    "COMPOUND": "CC(=O)CSCP(=O)(c1ccccc1)c1ccccc1",
    "T/C": "100 % of control"
  },
  {
    "COMPOUND": "O=c1[nH]cnc2c1ccc1[nH]ncc12",
    "T/C": "97 % of control"
  }
]

* * *

Listed here are compounds together with their documented T/C.
- Tested on: P388 leukemia ip, CD2F1 mice, survival T/C
- EXPERIMENT DESCRIPTION: NCI In Vivo Anticancer Drug Screen. Data for tumor model P388 Leukemia (intraperitoneal) in CD2F1 (CDF1) mice
- RUN PARAMETERS: endpoint: median survival time; dose: 150.0 mg/kg/injection; schedule: Q01DX009 (ip); vehicle: saline with Tween-80; higher = longer survival
Inconclusive results and toxic doses are left out.

[
  {
    "COMPOUND": "O=c1cc(O)n(-c2ccccc2)c(=O)n1-c1ccccc1",
    "T/C": "100 % of control"
  },
  {
    "COMPOUND": "COc1cc2c(cc1OC)[C@]13C[C@@H](OC)C=CC14OC4CN3CCC2 (some centres undefined)",
    "T/C": "122 % of control"
  },
  {
    "COMPOUND": "CC(=O)[C@@]1(O)CC[C@H]2[C@@H]3C[C@H](C)C4=CC(=O)CC[C@]4(C)[C@H]3[C@@H](O)C[C@@]21C",
    "T/C": "104 % of control"
  },
  {
    "COMPOUND": "CN1CCC(Br)(C(=O)c2ccccc2)CC1",
    "T/C": "104 % of control"
  }
]

These data points were gathered from PubChem BioAssay AID330.
